These measurements were taken from patent EP0204284A2.

Tested on: lipase
Type: biochemical, Pseudomonas fragi 22.39B
Conditions: 9:1 by volume mixture of 5U/ml enzyme solution and 10 mM metal ion solution, 25°C, 30 minutes; no calcium chloride
Listing of entries alongside the reported Residual activity, %.
Give your result in % as a bare value.

Known results for compounds:
[Cl][Ni][Cl] [NiCl2] ... 98.9
[Cl][Mn][Cl] [MnCl2] ... 81.7

Ask | For [Cl][Fe]([Cl])[Cl] [FeCl3, iron (III) chloride] , what is its reported Residual activity, %?
Reply | 33.0

Ask | What would you report for [Cl-].[Cl-].[Mg+2] [MgCl2] ?
Reply | 97.2

Ask | Another compound: [Cl-].[Cl-].[Zn+2] [ZnCl2, zinc chloride]
Reply | 34.9

Ask | Also [Cl][Fe][Cl] [FeCl2, iron (II) chloride] , if possible.
Reply | 36.7
